- Test system: NCI-H2342 (Lung Adenocarcinoma)
- Run Description: Bliss excess, mean over the matrix (fraction); higher = more synergy
Attribute Measured: Bliss excess
The answer should be written as a number, with no unit following it.

Quote NCI-H2342 (Lung Adenocarcinoma) Bliss excess for entry C=CCn1c(=O)c2cnc(Nc3ccc(N4CCN(C)CC4)cc3)nc2n1-c1cccc(C(C)(C)O)n1 [AZD1775] + Nc1ccn([C@@H]2O[C@H](CO)[C@@H](O)C2(F)F)c(=O)n1 [Gemcitabine] (first compound max 1 µM, partner max 0.3 µM) .
0.0724

Quote NCI-H2342 (Lung Adenocarcinoma) Bliss excess for entry N#Cc1cnc(Nc2cc(NC[C@H]3CNCCO3)c(C(F)(F)F)cn2)cn1 [SRA737] + Nc1ccn([C@@H]2O[C@H](CO)[C@@H](O)C2(F)F)c(=O)n1 [Gemcitabine] (first compound max 10 µM, 7x7, partner max 0.3 µM) .
0.14

Quote NCI-H2342 (Lung Adenocarcinoma) Bliss excess for entry CN(CCO)CC[C@H](CSc1ccccc1)Nc1ccc(S(=O)(=O)NC(=O)c2ccc(N3CCC([C@@H](O)c4ccccc4-c4ccc(Cl)cc4)CC3)cc2)cc1S(=O)(=O)C(F)(F)F [AZD4320] + C1CN(CCC1(C(=O)N[C@@H](CCO)C2=CC=C(C=C2)Cl)N)C3=NC=NC4=C3C=CN4 [Capivasertib] (first compound max 1 µM, 7x7, partner max 3 µM) .
-0.0259

Quote NCI-H2342 (Lung Adenocarcinoma) Bliss excess for entry COc1cccc(OCCCN)c1-c1cc(Nc2cnc(C#N)cn2)n[nH]1 [Prexasertib] + Cc1cc2ncnn2cc1Nc1ncc2c(n1)n(C1CCOCC1)c(=O)n2C [AZD7648] (first compound max 1 µM, 7x7, partner max 10 µM) .
-0.0216

====

- System: MKN45 (Gastric Carcinoma)
- Run Description: Bliss excess, mean over the matrix (fraction); higher = more synergy
Attribute Measured: Bliss excess
The answer should be written as a number, with no unit following it.

For the compound Cc1c2c(nn1C)CSCc1cc(n(C)n1)CSc1cc(c3ccccc3c1)OCCCc1c(C(=O)O)n(C)c3c-2c(Cl)ccc13 [AZD5991] + CCN(CCO)CCCOc1ccc2c(Nc3cc(CC(=O)Nc4cccc(F)c4)[nH]n3)ncnc2c1 [AZD2811] (first compound max 1 µM, 7x7, partner max 1 µM) , give its reported Bliss excess.
-0.0123

For the compound CS(=O)(=O)CCNCc1ccc(-c2ccc3ncnc(Nc4ccc(OCc5cccc(F)c5)c(Cl)c4)c3c2)o1 [Lapatinib] + C[C@@H](Oc1cc(-c2cnn(C3CCNCC3)c2)cnc1N)c1c(Cl)ccc(F)c1Cl [Crizotinib] (first compound max 10 µM, 7x7, partner max 10 µM) , give its reported Bliss excess.
-0.0063

For the compound Cc1c2c(nn1C)CSCc1cc(n(C)n1)CSc1cc(c3ccccc3c1)OCCCc1c(C(=O)O)n(C)c3c-2c(Cl)ccc13 [AZD5991] + Nc1ccn([C@@H]2O[C@H](CO)[C@@H](O)C2(F)F)c(=O)n1 [Gemcitabine] (first compound max 1 µM, 7x7, partner max 0.3 µM) , give its reported Bliss excess.
-0.0655

For the compound Cc1c2c(nn1C)CSCc1cc(n(C)n1)CSc1cc(c3ccccc3c1)OCCCc1c(C(=O)O)n(C)c3c-2c(Cl)ccc13 [AZD5991] + Cn1cnc2c(F)c(Nc3ccc(Br)cc3Cl)c(C(=O)NOCCO)cc21 [Selumetinib] (first compound max 1 µM, 7x7, partner max 3 µM) , give its reported Bliss excess.
-0.0643

====

- Test system: RERF-LC-Sq1 (Squamous Cell Lung Carcinoma)
- Run Description: combination Emax (second highest fraction inhibited in the dose matrix, 72 h); higher = more inhibition; extreme values may be limits of the assay
Attribute Measured: combination Emax
The answer should be written as a number, with no unit following it.

For the compound COc1nnc2ccc(N3CCC(c4ccc(OCCN5CCN(C)C(=O)[C@H]5C)cc4)CC3)nn12 [AZD5153] + C=CCn1c(=O)c2cnc(Nc3ccc(N4CCN(C)CC4)cc3)nc2n1-c1cccc(C(C)(C)O)n1 [AZD1775] (first compound max 1 µM, partner max 1 µM) , give its reported combination Emax.
0.743

For the compound CN(C)CCCOc1ccc(-c2ccc3ncc4c(c3c2)n(C2CCOCC2)c(=O)n4C)cn1 [AZD0156] + O=C(c1cc(Cc2n[nH]c(=O)c3ccccc23)ccc1F)N1CCN(C(=O)C2CC2)CC1 [Olaparib] (first compound max 3 µM, partner max 3 µM) , give its reported combination Emax.
0.418

For the compound CN(CCO)CC[C@H](CSc1ccccc1)Nc1ccc(S(=O)(=O)NC(=O)c2ccc(N3CCC([C@@H](O)c4ccccc4-c4ccc(Cl)cc4)CC3)cc2)cc1S(=O)(=O)C(F)(F)F [AZD4320] + C1CN(CCC1(C(=O)N[C@@H](CCO)C2=CC=C(C=C2)Cl)N)C3=NC=NC4=C3C=CN4 [Capivasertib] (first compound max 1 µM, 7x7, partner max 3 µM) , give its reported combination Emax.
0.667

====

- Test system: MKN45 (Gastric Carcinoma)
- Run Description: combination Emax (second highest fraction inhibited in the dose matrix, 72 h); higher = more inhibition; extreme values may be limits of the assay
Attribute Measured: combination Emax
The answer should be written as a number, with no unit following it.

For the compound CCc1c2c(nc3ccc(O)cc13)-c1cc3c(c(=O)n1C2)COC(=O)[C@]3(O)CC [SN-38] + O=C(c1cc(Cc2n[nH]c(=O)c3ccccc23)ccc1F)N1CCN(C(=O)C2CC2)CC1 [Olaparib] (first compound max 0.3 µM, 7x7, partner max 10 µM) , give its reported combination Emax.
0.847

For the compound CC1(C)CCC(CN2CCN(c3ccc(C(=O)NS(=O)(=O)c4ccc(NCC5CCOCC5)c([N+](=O)[O-])c4)c(Oc4cnc5[nH]ccc5c4)c3)CC2)=C(c2ccc(Cl)cc2)C1 [Venetoclax] + C[C@@H](Nc1cc(F)cc(F)c1)c1cc(C(=O)N(C)C)cc2c(=O)cc(N3CCOCC3)oc12 [AZD8186] (first compound max 1 µM, 7x7, partner max 3 µM) , give its reported combination Emax.
0.602

For the compound COc1nnc2ccc(N3CCC(c4ccc(OCCN5CCN(C)C(=O)[C@H]5C)cc4)CC3)nn12 [AZD5153] + C=CCn1c(=O)c2cnc(Nc3ccc(N4CCN(C)CC4)cc3)nc2n1-c1cccc(C(C)(C)O)n1 [AZD1775] (first compound max 1 µM, partner max 1 µM) , give its reported combination Emax.
0.696

For the compound CN(CCO)CC[C@H](CSc1ccccc1)Nc1ccc(S(=O)(=O)NC(=O)c2ccc(N3CCC([C@@H](O)c4ccccc4-c4ccc(Cl)cc4)CC3)cc2)cc1S(=O)(=O)C(F)(F)F [AZD4320] + CCN(CCO)CCCOc1ccc2c(Nc3cc(CC(=O)Nc4cccc(F)c4)[nH]n3)ncnc2c1 [AZD2811] (first compound max 1 µM, 7x7, partner max 1 µM) , give its reported combination Emax.
0.316

For the compound Cc1c2c(nn1C)CSCc1cc(n(C)n1)CSc1cc(c3ccccc3c1)OCCCc1c(C(=O)O)n(C)c3c-2c(Cl)ccc13 [AZD5991] + Cn1cnc2c(F)c(Nc3ccc(Br)cc3Cl)c(C(=O)NOCCO)cc21 [Selumetinib] (first compound max 1 µM, 7x7, partner max 3 µM) , give its reported combination Emax.
0.508

For the compound COc1cccc(OCCCN)c1-c1cc(Nc2cnc(C#N)cn2)n[nH]1 [Prexasertib] + O=C(c1cc(Cc2n[nH]c(=O)c3ccccc23)ccc1F)N1CCN(C(=O)C2CC2)CC1 [Olaparib] (first compound max 1 µM, 7x7, partner max 10 µM) , give its reported combination Emax.
0.854

For the compound CC1(C)CCC(CN2CCN(c3ccc(C(=O)NS(=O)(=O)c4ccc(NCC5CCOCC5)c([N+](=O)[O-])c4)c(Oc4cnc5[nH]ccc5c4)c3)CC2)=C(c2ccc(Cl)cc2)C1 [Venetoclax] + CCN(CCO)CCCOc1ccc2c(Nc3cc(CC(=O)Nc4cccc(F)c4)[nH]n3)ncnc2c1 [AZD2811] (first compound max 1 µM, 7x7, partner max 1 µM) , give its reported combination Emax.
0.588

For the compound COc1cccc(OCCCN)c1-c1cc(Nc2cnc(C#N)cn2)n[nH]1 [Prexasertib] + C=CCn1c(=O)c2cnc(Nc3ccc(N4CCN(C)CC4)cc3)nc2n1-c1cccc(C(C)(C)O)n1 [AZD1775] (first compound max 1 µM, partner max 1 µM) , give its reported combination Emax.
0.865

For the compound Cc1c2c(nn1C)CSCc1cc(n(C)n1)CSc1cc(c3ccccc3c1)OCCCc1c(C(=O)O)n(C)c3c-2c(Cl)ccc13 [AZD5991] + C1CN(CCC1(C(=O)N[C@@H](CCO)C2=CC=C(C=C2)Cl)N)C3=NC=NC4=C3C=CN4 [Capivasertib] (first compound max 1 µM, 7x7, partner max 3 µM) , give its reported combination Emax.
0.467

For the compound Cc1nc(-c2cn3c(n2)-c2ccc(-c4cnn(C(C)(C)C(N)=O)c4)cc2OCC3)n(C(C)C)n1 [Taselisib] + O=C(Nc1ccc2[nH]nc(-c3ccncc3)c2c1)[C@@H]1CCN(CC(=O)N2CCN(c3ccc(-c4ncccn4)cc3)CC2)C1 [SCH772984] (first compound max 10 µM, 7x7, partner max 5 µM) , give its reported combination Emax.
0.798

For the compound Cc1c2c(nn1C)CSCc1cc(n(C)n1)CSc1cc(c3ccccc3c1)OCCCc1c(C(=O)O)n(C)c3c-2c(Cl)ccc13 [AZD5991] + CN(C)CCCOc1ccc(-c2ccc3ncc4c(c3c2)n(C2CCOCC2)c(=O)n4C)cn1 [AZD0156] (first compound max 1 µM, 7x7, partner max 1 µM) , give its reported combination Emax.
0.356

For the compound Cc1cc2ncnn2cc1Nc1ncc2c(n1)n(C1CCOCC1)c(=O)n2C [AZD7648] + CCN(CCO)CCCOc1ccc2c(Nc3cc(CC(=O)Nc4cccc(F)c4)[nH]n3)ncnc2c1 [AZD2811] (first compound max 10 µM, 7x7, partner max 1 µM) , give its reported combination Emax.
0.446

For the compound CC1(C)CCC(CN2CCN(c3ccc(C(=O)NS(=O)(=O)c4ccc(NCC5CCOCC5)c([N+](=O)[O-])c4)c(Oc4cnc5[nH]ccc5c4)c3)CC2)=C(c2ccc(Cl)cc2)C1 [Venetoclax] + CS(=O)(=O)CCNCc1ccc(-c2ccc3ncnc(Nc4ccc(OCc5cccc(F)c5)c(Cl)c4)c3c2)o1 [Lapatinib] (first compound max 1 µM, 7x7, partner max 10 µM) , give its reported combination Emax.
0.242
